system: 786-0 renal; test: NCI tumour cell line growth inhibition, 48 h
Listed compounds paired with reported TGI
measuredAttribute: TGI

>>> result("COc1c(-c2nc3nc(N4CCN(C)CC4)ccc3[nH]2)cc(OC)c2c1nc(COC(C)=O)n2C")
"> 100 µM"
>>> result("CC1CC[P+](c2ccccc2)(c2ccccc2)c2c1ccc1ccccc21 (stereo unspecified)")
"43.4 µM"
>>> result("Cc1cccc(C)c1NC(=O)C1=NC(=S)NC(c2ccccc2)C1c1nc2ccccc2s1 (stereo unspecified)")
"> 100 µM"
>>> result("O=C1C=CC=C/C1=C1/SC(c2ccccc2)=C(O)N1c1ccccc1")
"> 100 µM"
>>> result("Cc1cccc(N2C(=O)C3c4[nH]c5ccccc5c4C4CCC(C(C)(C)C)CC4C3C2=O)c1 (stereo unspecified)")
"12.2 µM"
>>> result("CC(C)(C)C1CCC2c3c([nH]c4ccccc34)C3C(=O)N(c4ccc(Cl)cc4)C(=O)C3C2C1 (stereo unspecified)")
"> 100 µM"
>>> result("COC(=O)N[C@H](C(=O)O)C(C)O[Si](C)(C)C(C)(C)C (stereo partly specified)")
"> 100 µM"
>>> result("Cc1ccc(C(=O)Nc2ccc(CP(=O)(O)O)cc2CP(=O)(O)O)cc1NC(=O)Nc1cc(C(=O)Nc2ccc(CP(=O)(O)O)cc2CP(=O)(O)O)ccc1C")
"> 100 µM"
>>> result("Nc1nc([Se])c2ncn(C3OC(CO)C(O)C3O)c2n1 (stereo unspecified)")
"> 100 µM"
>>> result("Cc1nc(C)c(N2CCNCC2)c(=O)[nH]1")
"> 100 µM"
>>> result("CC1=C(c2ccccc2)C(O)(c2ccccc2)C(C)C1=O (stereo unspecified)")
"> 100 µM"
>>> result("CN(C)CCNC(=O)c1cccc2cc3c(Cl)cccc3nc12")
"> 20.2 µM"
>>> result("Clc1ccc(-c2cn3c(nc4ccccc43)c(/C=C/c3ccco3)n2)cc1")
"> 100 µM"
>>> result("COC(=O)c1c(C#N)c(N)nc2c1CCC2")
"> 100 µM"
>>> result("Cc1cc2c(cc1Cl)S/C(=C/C(=O)O)C(Nc1ccc3ncsc3c1)=NS2(=O)=O")
"22.1 µM"
>>> result("CCc1ccc(CCC(=O)Nc2ncc(Cc3ccc(Cl)cc3)s2)o1")
"> 100 µM"
>>> result("Cc1sc2c(c1C)/C(=N\\O)c1cccn1-2")
"52.3 µM"
>>> result("NC1=NS(=O)(=O)Nc2nc(-c3ccccc3)[nH]c21")
"> 100 µM"
>>> result("C/C=C1\\CN(C(=O)OC(C)(C)C)C1C(=O)OC(C)(C)C (stereo unspecified)")
"> 100 µM"
>>> result("CC1=C(/C=C/C(C)=C/C2CC(N(C)C)=CC(=O)O2)C(C)(C)CCC1 (stereo unspecified)")
"29.2 µM"
>>> result("CN(CCNC(=O)c1cn(C)c2c1ccc1cc(Cl)c(Cl)cc12)CCNC(=O)c1cn(C)c2c1ccc1cc(Cl)c(Cl)cc12")
"3.28 µM"

* * *

tested on: U251 CNS; test: NCI tumour cell line growth inhibition, 48 h
measuredAttribute: TGI

>>> result("Cc1cccc(C)c1NC(=O)C1=NC(=S)NC(c2ccccc2)C1c1nc2ccccc2s1 (stereo not given)")
"> 100 µM"
>>> result("CC(=O)Nc1ccc2[nH]c(C(=O)N3CC(CCl)c4c3cc([N+](=O)[O-])c3ccccc43)cc2c1 (stereo not given)")
"> 100 µM"
>>> result("COc1c(-c2nc3nc(N4CCN(C)CC4)ccc3[nH]2)cc(OC)c2c1nc(COC(C)=O)n2C")
"> 100 µM"
>>> result("NCC(O)CNC(=O)c1ccc(-c2ccc(-c3ccc(C(=O)NCC(O)CN)cc3)o2)cc1 (stereo not given)")
"42.6 µM"
>>> result("CCOP(=O)(OCC)C1CCCOC1=O (stereo not given)")
"> 100 µM"
